Experiment: Viability qHTS for spleen associated tyrosine kinase inhibitor (SYKi) drug resistant MV4-11 cells (AID 1963824); note: nearly all actives have a fitted effect of over 35% in size; note: potency is the fitted concentration of half-maximal effect
Conditions: SYKi-resistant MV4-11 viability, CellTiter-Glo, 72 h; series mostly up to 45 µM
Inconclusive results are not listed. Active and inactive are the calls of the source. Calls come from the whole dose curve; as a rule, active = well fitted cell-killing curve with a large enough effect; inconclusive = small, poorly fitted or top-dose-only effect, or effect the other way; inactive = no such curve, though single readings can be large or run the other way.
Test readout: Potency

INSERT INTO results (compound, test_readout, test_result) VALUES
  ('Cc1cccc(NC(=O)N[C@H]2CN(C)c3ccccc3C(c3ccccc3)=N2)c1', 'Potency', '16.4 µM (active)'),
  ('CC(C)(C)c1cc(C=C(C#N)C#N)cc(Br)c1O', 'Potency', '16.6 µM (active)'),
  ('COc1cc2cc(c1Cl)N(C)C(=O)C[C@H](OC(=O)C(C)C)[C@]1(C)O[C@@H]1[C@H](C)[C@@H]1C[C@@](O)(NC(=O)O1)[C@H](OC)/C=C/C=C(\C)C2', 'Potency', 'inactive'),
  ('C[C@@]12C[C@@H](c3ccoc3)OC(=O)C1CC[C@]1(C)[C@H]2[C@H]2C=C[C@]1(O)C(=O)O2 (some centres not stated)', 'Potency', 'inactive');

Respectfully, I request Potency for each entry included below.
1. CC(C)=C[C@@H]1[C@@H](C(=O)OCc2coc(Cc3ccccc3)c2)C1(C)C
2. C=C1[C@@H](C)C2[C@H](Cc3ccccc3)NC(=O)[C@@]23C(/C=C/C[C@H](C)C[C@@](C)(O)/C=C/[C@@H]3OC(C)=O)[C@@H]1O (some centres not stated)
3. O=C(O)C(=O)c1cn(Cc2ccccc2)c2ccc(-c3ccc(OC(F)(F)F)cc3)cc12
4. Cc1ncsc1CCCl
5. N[C@@H](Cc1ccc(Oc2cc(I)c(O)c(I)c2)c(I)c1)C(=O)O
6. C=C1[C@@H](C)[C@H]2[C@H](Cc3ccccc3)NC(=O)[C@]23OC(=O)/C=C/C(=O)CCC[C@@H](C)C/C=C/[C@H]3[C@@H]1O
7. CC[C@@H](C(N)=O)N1CCCC1=O
8. CCCN1CCC[C@@H]2Cc3nc(N)ncc3C[C@H]21

Found:
1: inactive; 2: 0.92 µM (active); 3: 20.6 µM (active); 4: inactive; 5: inactive; 6: 0.92 µM (active); 7: inactive; 8: inactive

Give Potency for each of the items listed below.
1. COC[C@@H]1OC(=O)c2coc3c2[C@]1(C)C1=C(C3=O)[C@H]2CC[C@H](O)[C@@]2(C)C[C@@H]1OC(C)=O
2. C[C@@H]1CN(Cc2ccc(F)cc2)CCN1C(=O)COc1ccc(Cl)cc1NC(N)=O
3. COc1ccc(C(=O)N2CCCC2=O)cc1
4. COC1CC(=C(c2cccs2)c2cccs2)C[N+](C)(C)C1 (configuration not stated)
5. C[C@]12CC[C@@H]3c4ccc(OC(=O)N(CCCl)CCCl)cc4CC[C@H]3[C@@H]1CC[C@@H]2OP(=O)(O)O
6. O=C(O)CCCCCCNC1c2ccccc2CCc2ccccc21

Found:
1. 6.51 µM (active)
2. 0.82 µM (active)
3. inactive
4. 16.8 µM (active)
5. inactive
6. inactive

Consider the following items and state reported Potency for each.
1. CC(C)(C)C(O)C(Oc1ccc(Cl)cc1)n1cncn1 (configuration not stated)
2. CCCN(CCC)c1c([N+](=O)[O-])cc(S(N)(=O)=O)cc1[N+](=O)[O-]
3. C[C@H](NC(=O)Cc1cc(F)cc(F)c1)C(=O)N[C@@H]1N=C(c2ccccc2)c2ccccc2N(C)C1=O

Found:
1. 21.7 µM (active)
2. 21.7 µM (active)
3. inactive

# map each compound to its Potency
1. CN(C(=O)C(c1ccccc1)c1ccccc1)[C@H](CN1CC[C@H](O)C1)c1ccccc1
2. C[C@]12CCC(=O)C=C1CC[C@@H]1[C@H]3CC[C@](C)(O)[C@@]3(C)CC[C@@H]12
3. O=C(NC(=O)c1c(F)cccc1F)Nc1cc(Cl)c(OC(F)(F)C(F)C(F)(F)F)cc1Cl (configuration not stated)
4. CN1CCN(C(=O)O[C@H]2c3nccnc3C(=O)N2c2ccc(Cl)cn2)CC1
5. COC1(C[S@@](=O)c2ccccc2)CCN(CCc2c[nH]c3ccc(F)cc23)CC1
6. O=C(O)c1ccc2[nH]cc(CCCCN3CC=C(c4ccccc4)CC3)c2c1
7. CC(=O)OC[C@]12C[C@H](OC(C)=O)C(C)=C[C@H]1O[C@@H]1[C@H](O)[C@@H](O)[C@@]2(C)[C@]12CO2
8. CC(=O)O[C@@H]1CC2C(C)(C)C(=O)C=C[C@]2(C)C2CC[C@]3(C)C(=CC(=O)O[C@H]3c3ccoc3)[C@@]21C (some centres not stated)

Found:
1. 20.6 µM (active)
2. 21.9 µM (active)
3. 16.8 µM (active)
4. inactive
5. 20.6 µM (active)
6. inactive
7. inactive
8. 13 µM (active)

Report Potency for every entry below.
1. CCCCCC[C@H]1C(=O)O[C@H](C)[C@H](NC(=O)c2cccc(NC=O)c2O)C(=O)O[C@@H](C)[C@@H]1OC(=O)CC(C)C
2. CC1=CC2/C=C(\C)CCC(O)C(O)/C=C/C(=O)OC23C(=O)NC(CC(C)C)C3C1C (configuration not stated)

Found:
1. 0.105 µM (active)
2. 7.96 µM (active)

I'm hoping you can list Potency for every compound here, please.
1. COc1ccc(C(CN(C)C)C2(O)CCCCC2)cc1 (configuration not stated)
2. CC1Oc2cc3c(-c4c(O)cc(O)c5c(O)c6c(cc45)OC(C)C(C)C6=O)c(O)cc(O)c3c(O)c2C(=O)C1C (configuration not stated)
3. CNC(C)(C)Cc1ccccc1
4. CCO[C@H]1O[C@@H]2OC3(C)CC[C@H]4[C@H](C)CC[C@@H]([C@H]1C)[C@@]24OO3
5. CN(C(=O)Cc1ccccc1)C(CN1CCCC1)c1ccccc1 (configuration not stated)

Found:
1. inactive
2. 4.61 µM (active)
3. inactive
4. 2.99 µM (active)
5. inactive

# Potency (compound: C=C(CO)C(=O)O[C@H]1CC(=C)[C@@H]2C[C@H](O)C(=C)[C@@H]2[C@H]2OC(=O)C(=C)[C@@H]21 ) is 1.61 µM (active)
